biological target: T1, human Galectin-3 (Gal3), full-length recombinant (human, UniProt P17931 2-250); test: blocking ELISA, Gal3 coated, biotin-Abeta42 oligomer
T1 construct: treated here as one molecule; also called hGAL3; hGal3
T1 sequence (P17931 2-250 limits assumed): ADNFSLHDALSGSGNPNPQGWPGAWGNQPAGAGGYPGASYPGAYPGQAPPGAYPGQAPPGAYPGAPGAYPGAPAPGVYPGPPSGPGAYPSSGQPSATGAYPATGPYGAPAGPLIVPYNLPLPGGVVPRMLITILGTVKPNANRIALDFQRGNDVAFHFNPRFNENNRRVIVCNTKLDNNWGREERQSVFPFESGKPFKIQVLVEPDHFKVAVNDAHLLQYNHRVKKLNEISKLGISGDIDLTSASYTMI
outcomeMeasure: % blocking of Gal3-Abeta42 oligomer binding

Req: Which % blocking of Gal3-Abeta42 oligomer binding is reported for this binder? 23H9.2E4 (antibody, V domains shown) VH: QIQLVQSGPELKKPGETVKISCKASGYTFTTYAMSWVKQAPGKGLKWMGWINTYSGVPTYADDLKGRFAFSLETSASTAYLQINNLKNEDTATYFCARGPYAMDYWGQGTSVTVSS VL: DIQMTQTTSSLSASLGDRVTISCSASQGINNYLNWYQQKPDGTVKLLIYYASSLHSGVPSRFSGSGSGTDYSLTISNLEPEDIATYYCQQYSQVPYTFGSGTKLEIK
Resp: < 26%

Req: Requested read-out: % blocking of Gal3-Abeta42 oligomer binding. Entry: F847C.4B10 (antibody, human IgG4 S228P, kappa, V domains shown) VH: EVQLVETGGGLVKPGGSLKLSCAASGFTFSSYAMSWVRQTPEKRLEWVASISSGGSTYYPDSVKGRFTISRDNARNILYLQMSSLRSEDTAMYYCTRFTTVVEMDYWGQGTSVTVSS VL: QAVVTQESALTTSPGETVTLTCRSSTGAVTTSNYANWVQEKPDHLFTGLIGGTNNRAPGVPARFSGSLIGDKAALTITGAQTEDEAIYFCALWYSNHLVFGGGTKLTVLR
Resp: < 26%

Req: What value of measured % blocking of Gal3-Abeta42 oligomer binding is listed for F846C.1F5 (antibody, human IgG4 S228P, kappa, V domains shown, also called 846.1F5) VH: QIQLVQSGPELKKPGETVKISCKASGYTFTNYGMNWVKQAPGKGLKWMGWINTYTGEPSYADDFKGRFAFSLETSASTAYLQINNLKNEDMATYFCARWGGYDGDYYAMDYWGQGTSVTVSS VL: NIMMTQSPSSLAVSAGEKVTMSCKSSQSVLYSSNQKNYLAWYQQKPGQSPKLLIYWASTRESGVPDRFTGSGSGTDFTLTISSVQPEDLAVYYCHQYLSSLTFGAGTKLELKR ?
Resp: > 90%

Req: Sample F847C.11B1 (antibody, human IgG4 S228P, kappa, V domains shown, also called 847.11B1) VH: EVQLQQSGPELVKPGASVKISCKASGNTFTDHNMHWVKQSHGKSLEWIGYIYPYNGGTGYNQKFKSKATLTVDNSSSTVYMELRSLTSEDSAVYYCARGEYDYLAWFAYWGQGTLVTVSA VL: EIVLTQSPASLSVTTGEKVTIRCITSIDIDDDMNWYQQKPGEPPKLLISEGNTLRPGVPSRFSSSGYGTDFVFTIENTLSEDVADYYCLQSDNKPLTFGAGTKLELKR — what was its % blocking of Gal3-Abeta42 oligomer binding?
Resp: < 26%

Req: Tell me the measured % blocking of Gal3-Abeta42 oligomer binding of F846TC.14E4 (antibody, human IgG4 S228P, kappa, V domains shown, also called 846T.14E4) VH: QVTLKESGPGILQPSQTLSLTCSFSGFSLSTSGMGVGWIRQPSGKGLEWLAHIWWDDDKYYNTALKSGLTISKDASKNQVFLKIASMDTADTATYYCARNLYDGSYGYYAMDYWGQGTSVTVSS VL: DIVMTQAAFSNPVTLGTSASISCRSSKSLLHTNGITFLYWYLQKPGQSPQPLIYQMSNLASGVPDRFSSSGSGTDFTLRISRVEAEDVGVYYCAQNLELPWTFGGGTKLEINR , please.
Resp: > 90%

Values from patent US20250145722A1
